experiment: Cytotoxicity against human Huh7.5 cells after 72 hrs by MTT assay; type: cell-based
We begin with a simple list: items and their reported CC50 at 72 h.
test-readout: CC50 at 72 h (µM)

{"columns": ["compound", "comparator", "value-observed"],
 "data": [
  ["CC(=O)[C@@H]1C[C@H](C(=O)O)[C@@]1(C)CC/C=C(\\C)C(=O)O", "=", 75.3],
  ["CCC[C@H](NC(=O)[C@@H]1[C@H]2CCC[C@H]2CN1C(=O)[C@@H](NC(=O)[C@@H](NC(=O)c1cnccn1)C1CCCCC1)C(C)(C)C)C(=O)C(=O)NC1CC1", "=", 26.5],
  ["CC(C)OC(=O)[C@H](C)NP(=O)(OC[C@H]1O[C@@H](n2ccc(=O)[nH]c2=O)[C@](C)(F)[C@@H]1O)Oc1ccccc1 (some centres undefined)", ">", 200],
  ["C/C(=C\\CC[C@]1(C)[C@@H](C(=O)O)C[C@H]1[C@](C)(O)C(=O)O)C(=O)O", "=", 74.3]
]}

Origin of values: ChEMBL document CHEMBL4330116
